# study-system: Pantothenate kinase, putative (Plasmodium falciparum (isolate 3D7))
# assay-summary: Inhibition of pantothenate kinase in Plasmodium falciparum 3D7 trophozoites at 1 to 100 uM using [14C]pantothenate as substrate after 15 mins by TopCount scintillation counting method
The source made the active and inactive calls. The calls are words filed in the database; no cut-off is given here.
Log the outcome using a class from T = active, F = inactive

CC(C)(C)OC(=O)/C=C/NC(=O)[C@H](O)C(C)(C)CO    T
COC(=O)/C=C/NC(=O)[C@H](O)C(C)(C)CO    T

Prompt: Write down the call the test reported for this compound. Item: CCOC(=O)/C(C)=C/NC(=O)[C@H](O)C(C)(C)CO
Completion: F

Prompt: // query: CCOC(=O)/C=C/NC(=O)[C@H](O)C(C)(C)CO
Completion: T
